# protocolSummary: A quantitative high throughput screen for small molecules that induce DNA re-replication in MCF 10a normal breast cells. Note: nearly all actives have a fitted effect of over 50% in size.
# experimentalConditions: MCF 10A DNA re-replication, Hoechst nuclear intensity, 48 h; series mostly up to 46.1 µM
Screen size: about 350,000 compounds; about 9,900 (2.8%) were called active. About 15% were inconclusive and are not listed. Calls come from the whole dose curve; as a rule, active = well fitted activation curve with a large enough effect; inconclusive = small, poorly fitted or top-dose-only effect; inactive = no such curve, though single readings can be large or run the other way. The entries come from a sample that favours actives as a whole.
Parameter call: string, one of active, inactive

Completed entries (count: 3):
compound=CCCn1nc(NS(=O)(=O)c2ccccc2)c2cc3cc(C)ccc3nc21 classlabel=inactive
compound=O=S(=O)([N-]c1nc2ccccc2nc1-[n+]1ccc(Cc2ccccc2)cc1)c1ccc(Br)s1 classlabel=active
compound=COc1cc(Cl)ccc1OCc1cc(C(=O)N2CC[C@@H]3CCCC[C@H]3C2)no1 classlabel=active

(Q) What outcome does the record of this test show for COc1ccc(CCc2nc(-c3cccs3)no2)cc1 ?
(A) inactive

(Q) Further, for O=C(CSc1nnc(-c2ccncc2)o1)Nc1cccc(Cl)c1 ?
(A) inactive

(Q) Now consider Cc1ccc(-n2c(=O)c(C#N)cc3c(=O)n4ccccc4nc32)cc1C and answer again.
(A) active

(Q) Queued: CCOC(=O)N1CCN(C(=O)C2CCN(c3ncnc4c3sc3cccc(F)c34)CC2)CC1
(A) inactive

(Q) Now the compound CCn1nc(NC(=O)c2ccco2)c2cc3ccc(C)cc3nc21
(A) active

(Q) Then this compound: CCC(C)C(N=C1NS(=O)(=O)c2ccccc21)C(=O)N1CCC(C)CC1 (stereo unspecified)
(A) inactive

(Q) Consider next the compound CCOC(=O)C1CCN(c2ncnc3c2oc2ccc(Br)cc23)CC1 in the same way.
(A) active

(Q) Note, next up: O=C(CCNC(=O)c1ccccc1)Nc1nc2ccccc2s1
(A) inactive

(Q) And CCOC(=O)c1ccc(NC(=O)C2CC(=O)N(c3ccc4c(c3)OCCO4)C2)cc1 (stereo unspecified) ?
(A) inactive

(Q) And for CN[C@H](C(=O)NC[C@H]1O[C@@H](n2cnc3c(N)ncnc32)[C@H](O)[C@@H]1O)[C@@H](C)OCc1ccccc1 ?
(A) inactive

(Q) Also Nc1ncnc2c1ncn2[C@@H]1O[C@H](CNCc2cccn2-c2nccs2)[C@@H](O)[C@H]1O , if possible.
(A) inactive

(Q) Also CCn1ccnc1CN(C)C(=O)c1cc(COc2ccc(Cl)cc2OC)on1 ?
(A) inactive

(Q) Entry O=C(COC(=O)c1cc(S(=O)(=O)N2CCOCC2)ccc1Cl)NCCc1ccccc1 please
(A) inactive

(Q) Please answer likewise for Cc1cc(Nc2ccc(Cl)cc2)nc(N2CCOCC2)n1
(A) inactive

(Q) Follow-up item: Cc1occc1-c1nnc(SCC(=O)NC2(C#N)CCCC2)n1C
(A) inactive

(Q) Now this one: O=C1[C@@H](c2ccccc2)[C@@H](c2ccccc2)N1c1cccnc1
(A) inactive

(Q) Next: CCOC(=O)C1CCN(C(=O)c2cccc(S(=O)(=O)N(CC)c3ccccc3)c2)CC1
(A) inactive

(Q) Quick one: CC(=O)Nc1ccc(S(=O)(=O)NCCC(=O)N2CCN(c3ccccc3Cl)CC2)cc1
(A) inactive

----------
# protocolSummary: A quantitative high throughput screen for small molecules that induce DNA re-replication in MCF 10a normal breast cells. Note: nearly all actives have a fitted effect of over 50% in size.
# experimentalConditions: MCF 10A DNA re-replication, Hoechst nuclear intensity, 48 h; series mostly up to 46.1 µM
Among all 350,000 compounds or so, about 9,900 (2.8%) were called active. Another 15% or so got no clear call; they are omitted. Calls come from the whole dose curve; as a rule, active = well fitted activation curve with a large enough effect; inconclusive = small, poorly fitted or top-dose-only effect; inactive = no such curve, though single readings can be large or run the other way. The list comes from a sample in which actives are over-represented; it also holds close analogues and randomly drawn compounds.
Respond only with the outcome that fits, drawn from 1 = active, 0 = inactive

Consider the following illustrative entries.
molecule=COc1ccc(-c2nc3n(c2Br)CCC3)cc1 classlabel=0
molecule="NC(=O)Nc1ccc(C(=O)OCC(=O)NC2CCCc3ccccc32)cc1 (stereo not given)" classlabel=0
molecule="CCC(CO)Oc1cc(NC(=O)c2cccc3ccccc23)c2ncn(C(C)C)c2c1 (stereo not given)" classlabel=0
molecule=COc1ccc(S(=O)(=O)Nc2cccc3c2O[C@H](CN(C)S(=O)(=O)c2ccc(OC)cc2)[C@@H](C)CN([C@H](C)CO)C3=O)cc1 classlabel=0
molecule=CCOC(=O)c1sc(NC(=O)COc2ncnc3ccccc23)c(C(=O)OCC)c1C classlabel=0
molecule="CCOC(=O)c1c(NC(=O)CNC2CCCc3ccccc32)sc(C(N)=O)c1C (stereo not given)" classlabel=1
molecule=CN1CCN(c2ccc(NC(=O)c3cc(Cl)c4c(c3)OCCO4)cc2)CC1 classlabel=0
molecule=COc1ccccc1CNC(=O)c1ccc(Cl)c(S(=O)(=O)N2CCCC2)c1 classlabel=0
molecule=COc1ccc(-c2nc3c(s2)CCc2onc(-c4ccc(Br)cc4)c2-3)cc1 classlabel=0

(Q) What is the recorded call for this molecule in the test? CCN(CC(=O)NCc1ccc(F)cc1)S(=O)(=O)c1ccc(Cl)s1
(A) 0

----------
# protocolSummary: A quantitative high throughput screen for small molecules that induce DNA re-replication in MCF 10a normal breast cells. Note: nearly all actives have a fitted effect of over 50% in size.
# experimentalConditions: MCF 10A DNA re-replication, Hoechst nuclear intensity, 48 h; series mostly up to 46.1 µM
Screen size: about 350,000 compounds; about 9,900 (2.8%) were called active. Roughly 15% stayed inconclusive and do not appear here. The call rests on the fitted dose curve; in most records, active means well fitted activation curve with a large enough effect; inconclusive means small, poorly fitted or top-dose-only effect; inactive means no such curve, though single readings can be large or run the other way. Only a selection was taken, and actives are over-represented in it overall.
Could you please pick one outcome from this set? active, inactive

compound=COc1ccc(S(=O)(=O)N2CCCCCC2)cc1NC(=O)Cc1ccc(OC)c(OC)c1 classlabel=inactive
compound=CCOC(=O)c1cc(C#N)c(N2CCCCC2)nc1-c1ccccc1 classlabel=active

(Q) Any idea what this test logged for CCOCc1c(C(=O)N2CCN(Cc3ccc(Br)s3)CC2)oc2ccccc12 ?
(A) inactive

(Q) Moving on to CCS(=O)(=O)Nc1ccc(C2=NN(C(C)=O)C(c3cccs3)C2)cc1 (stereo unspecified)
(A) active

(Q) Field entry: CCCCOC(=O)Cn1c(=O)n(CC(=O)OCCCC)c2cc(C)ccc21
(A) inactive

(Q) Param item: CCCCCCCCCCOC(=O)Cn1c(COc2ccc(C)cc2)[n+](C)c2ccccc21
(A) active

(Q) # iterate: Cc1cc(C(=O)OCC(=O)NCc2ccco2)c(C)n1-c1ccccc1
(A) active

(Q) Moving on to the next compound: CC(=O)n1cc([C@@H]2C=C(C(=O)N3CCN(Cc4ccc5c(c4)OCO5)CC3)O[C@H](OCc3ccc(CO)cc3)C2)c2ccccc21
(A) active

(Q) Also, CCc1c(C)sc(NC(=O)/C=C/c2ccc3c(c2)OCO3)c1C(=O)OC please.
(A) active

(Q) Next record, please: Cc1cc(C)c2nc(N3CCCC3)c(C#N)cc2c1
(A) inactive

----------
# protocolSummary: A quantitative high throughput screen for small molecules that induce DNA re-replication in MCF 10a normal breast cells. Note: nearly all actives have a fitted effect of over 50% in size.
# experimentalConditions: MCF 10A DNA re-replication, Hoechst nuclear intensity, 48 h; series mostly up to 46.1 µM
The campaign covered roughly 350,000 compounds. About 9,900 (2.8%) were called active. Inconclusive results (about 15%) are left out. Calls follow the shape of the dose curve; as a rule, active = well fitted activation curve with a large enough effect; inconclusive = small, poorly fitted or top-dose-only effect; inactive = no such curve, though single readings can be large or run the other way. What follows is part of a selection rich in actives, with near analogues and random picks from the rest.
Can you answer with just one of these options? active, inactive

Before answering, review these 6 worked examples.
molecule=O=C(CSc1ccc(/C=N/NC(=O)c2cccc(F)c2)o1)Nc1ccccc1 classlabel=inactive
molecule=COc1ccc(CCNC(=O)c2cc(-c3ccc4c(c3)OCO4)on2)cc1OC classlabel=inactive
molecule=Cc1ccc(N2NC(=O)/C(=C/C=C/c3ccco3)C2=O)cc1C classlabel=active
molecule=O=C1NN(c2ccccc2)C(=O)/C1=C/c1ccc(-c2cccc(C(=O)O)c2)o1 classlabel=inactive
molecule="Cc1cccc(NC(=S)N2CCCC(c3nc4ccccc4[nH]3)C2)c1 (stereo not given)" classlabel=active
molecule="CCOC(=O)C1CCCN(C(=O)CSc2nnc3nc(C)cc(C)n23)C1 (stereo not given)" classlabel=inactive

(Q) Hello, I am checking results. What call was entered for COc1cc2c(-c3ccc4c(c3)OCO4)c(-c3ccsc3)oc(=O)c2cc1OC ?
(A) inactive

(Q) Also, COc1cccc(CC(=NO)c2cccc(OC)c2)c1 please.
(A) inactive

(Q) Now the molecule CCC1S/C(=N/N=C/c2ccco2)NC1=O (stereo not given)
(A) inactive

----------
# protocolSummary: A quantitative high throughput screen for small molecules that induce DNA re-replication in MCF 10a normal breast cells. Note: nearly all actives have a fitted effect of over 50% in size.
# experimentalConditions: MCF 10A DNA re-replication, Hoechst nuclear intensity, 48 h; series mostly up to 46.1 µM
About 9,900 (2.8%) of roughly 350,000 compounds were called active. Roughly 15% stayed inconclusive and do not appear here. Calls follow the shape of the dose curve; as a rule, active = well fitted activation curve with a large enough effect; inconclusive = small, poorly fitted or top-dose-only effect; inactive = no such curve, though single readings can be large or run the other way. Many of the other results were omitted from the sample, so actives are more common in it than they were.
Hello, when you answer, please use one of the following outcomes: active, inactive

Solved entries:
compound=O=C(CSc1nc2ccccc2[nH]1)Nc1nc(-c2ccccc2)c(-c2ccccc2)o1 classlabel=inactive
compound="CCC(C)N1C(=O)S/C(=C/c2ccc(Sc3nc4ccccc4[nH]3)o2)C1=O (centres undefined)" classlabel=active
compound=Cc1nc2sc(C(=O)c3ccccc3)c(N)c2c2c1CCCC2 classlabel=active

Next:
(Q) Which outcome was entered for the compound CCc1nnc(NC(=O)CCCSc2nc3ccccc3[nH]2)s1 in this test?
(A) inactive
